Attribution: patent US11390621B2

experiment: In vivo pharmacokinetic studies in rats; set-up: species or system SD rats; details: Sprague-Dawley, rat, plasma, po, 10 mg/kg, rats, repeat 10 mg/kg PO QD, Day 5, Mean
ATTRIBUTE_MEASURED: Cmax at 5 day (ng/mL)
Numbers only, in ng/mL.

>>> df
                               query_smiles  attribute_measured  result
0  N[C@@H](c1csc(C(=O)c2c[nH]c3cc(F)ccc23)n1)C(F)(F)F       Cmax at 5 day    5.96

# ---- query molecule ----
Exercise: If you can, please state the reported Cmax at 5 day value of "CC[C@H](N)c1csc(C(=O)c2c[nH]c3cc(F)ccc23)n1" .
Solution: 1580

----------
test: Hepatocyte intrinsic clearance assay (metabolic stability), rat hepatocytes; format: in vitro ADME; conditions: rat, cryopreserved hepatocytes, Rat Hepatocytes, 1 μM test compound
Kindly supply the reported hepatocyte CLint at 1 μM values for the records listed here.
One number for each entry, in µL/min/1e6 cells.

>>> df
                                   compound   unit_descriptor  result
0  CC[C@H](O)c1csc(C(=O)c2c[nH]c3ccc(F)cc23)n1 [ARI-194]  µL/min/1e6 cells    18.2
1  O=C(c1nc(C2(O)CC2)cs1)c1c[nH]c2cc(F)ccc12 [ARI-221]  µL/min/1e6 cells    5.55
2  O=C(c1nc([C@@H](O)C(F)(F)F)cs1)c1c[nH]c2cc(F)ccc12 [ARI-211]  µL/min/1e6 cells    3.21
3  N[C@@H](c1csc(C(=O)c2c[nH]c3cc(F)ccc23)n1)C(F)(F)F [ARI-224]  µL/min/1e6 cells    6.12
4  N[C@@H](c1csc(C(=O)c2c[nH]c3ccccc23)n1)C(F)(F)F [ARI-229]  µL/min/1e6 cells    11.7

Provide hepatocyte CLint at 1 μM values for the following items, in order.
1. NC1(c2csc(C(=O)c3c[nH]c4cc(F)ccc34)n2)CC1 [ARI-225]
2. CC[C@@H](O)c1nc(C(=O)c2c[nH]c3cc(F)ccc23)cs1 [ARI-214]
3. CC[C@@H](N)c1csc(C(=O)c2c[nH]c3ccc(F)cc23)n1 [ARI-219]
4. CC[C@@H](N)c1csc(C(=O)c2c[nH]c3cc(F)ccc23)n1 [ARI-187]
5. CCC(C)(O)c1csc(C(=O)c2c[nH]c3cc(F)ccc23)n1 (centres unmarked) [ARI209]
6. CC(C)(N)c1csc(C(=O)c2c[nH]c3cc(F)ccc23)n1 [ARI-226]
7. CC[C@@H](O)c1csc(C(=O)c2c[nH]c3ccc(F)cc23)n1 [ARI-195]

Solution:
1: 23.2; 2: 8.01; 3: 21.4; 4: 4.93; 5: 12.2; 6: 6.54; 7: 9.16

Provide hepatocyte CLint at 1 μM values for the following items, in order.
1. O=C(c1nc(C(O)C(F)(F)F)cs1)c1c[nH]c2ccccc12 (centres unmarked) [ARI088]
2. CCC(O)(CC)c1csc(C(=O)c2c[nH]c3cc(F)ccc23)n1 [ARI-210]

Solution:
11.6
29.9

----------
assay: In vivo pharmacokinetic studies in rats; design: species or system SD rats; conditions: Sprague-Dawley (SD), rat, plasma, po, 10 mg/kg, rats, single 10 mg/kg PO dose, individual animal; read-out: Cmax
Kindly supply the reported Cmax values for the records listed here.
Give bare numbers, in µg/mL.

>>> df
                               query_smiles  result
0  CC[C@H](O)c1csc(C(=O)c2c[nH]c3cc(F)ccc23)n1   0.532

Exercise: If you can, please state the reported Cmax value of "CC[C@@H](O)c1csc(C(=O)c2c[nH]c3cc(F)ccc23)n1" .
Solution: 1.25

----------
test: In vivo pharmacokinetic studies in rats; parameters: species or system SD rats; settings: male, Sprague-Dawley (SD), rat, plasma, po, 30 mg/kg, male rats, repeat 30 mg/kg oral dose, Day 1, Mean
ATTRIBUTE_MEASURED: Cmax at 1 day (ng/mL)
Numbers only, in ng/mL.

Exercise: If you can, please state the reported Cmax at 1 day value of "CC[C@H](O)c1csc(C(=O)c2c[nH]c3cc(F)ccc23)n1" .
Solution: 499

----------
Kindly supply the reported AUC(0-inf) values for the records listed here.
test: In vivo pharmacokinetic studies in rats; set-up: species or system SD rats; settings: SD, rat, plasma, iv, 2 mg/kg, rats, single 2 mg/kg IV dose, Mean of 3 animals
One number for each entry, in ng·h/mL.

                               query_smiles  result
0  CC[C@H](O)c1csc(C(=O)c2c[nH]c3cc(F)ccc23)n1   21500

Exercise: If you can, please state the reported AUC(0-inf) value of "CC[C@@H](O)c1csc(C(=O)c2c[nH]c3cc(F)ccc23)n1" .
Solution: 12800

----------
assay: In vivo pharmacokinetic studies in mice; parameters: species or system Balb/C mice; settings: Balb/C, mouse, plasma; mice, single 40 mg/kg oral dose
ATTRIBUTE_MEASURED: AUC (ng·h/mL)
Give bare numbers, in ng·h/mL.

>>> df
                               query_smiles  attribute_measured  result
0  CC[C@H](N)c1csc(C(=O)c2c[nH]c3cc(F)ccc23)n1                 AUC   73900

# ---- query compound ----
Exercise: If you can, please state the reported AUC value of "CC[C@H](O)c1csc(C(=O)c2c[nH]c3cc(F)ccc23)n1" .
Solution: 3010

----------
Kindly supply the reported bioavailability values for the records listed here.
test: In vivo pharmacokinetic studies in rats; set-up: species or system SD rats; details: Sprague-Dawley (SD), rat, plasma; rats, 10 mg/kg PO vs 2 mg/kg IV; read-out: F (Bioavailability)
Numbers only, in %.

In [3]: df
Out[3]:
                               query_smiles  result
0  CC[C@@H](O)c1csc(C(=O)c2c[nH]c3cc(F)ccc23)n1    6.73

# ---- query compound ----
Exercise: If you can, please state the reported bioavailability value of "CC[C@H](O)c1csc(C(=O)c2c[nH]c3cc(F)ccc23)n1" .
Solution: 1.94

----------
Kindly supply the reported Tmax at 1 day values for the records listed here.
assay: In vivo pharmacokinetic studies in rats; parameters: species or system SD rats; conditions: Sprague-Dawley, rat, plasma, po, 10 mg/kg, rats, repeat 10 mg/kg PO QD, Day 1, individual animal; read-out: Tmax
One number for each entry, in h.

                               query_smiles  result
0  CC[C@H](N)c1csc(C(=O)c2c[nH]c3cc(F)ccc23)n1       8

# ---- query compound ----
Exercise: If you can, please state the reported Tmax at 1 day value of "N[C@@H](c1csc(C(=O)c2c[nH]c3cc(F)ccc23)n1)C(F)(F)F" .
Solution: 1

----------
test: Hepatocyte intrinsic clearance assay (metabolic stability), rat hepatocytes; type: in vitro ADME; conditions: rat, cryopreserved hepatocytes, Rat Hepatocytes, 1 μM test compound
ATTRIBUTE_MEASURED: half-life at 1 μM (h)
Answers are plain numbers, in h.

>>> df
                                   compound  result
0  CC[C@@H](O)c1csc(C(=O)c2c[nH]c3ccc(F)cc23)n1     1.3
1  NC(c1csc(C(=O)c2c[nH]c3ccccc23)n1)C(F)(F)F (centres unmarked)     1.3
2  CC[C@@H](O)c1nc(C(=O)c2c[nH]c3cc(F)ccc23)cs1     1.4
3  O=C(c1nc(C(O)C(F)(F)F)cs1)c1c[nH]c2ccccc12 (centres unmarked)       1

Exercise: If you can, please state the reported half-life at 1 μM value of "N[C@@H](c1csc(C(=O)c2c[nH]c3cc(F)ccc23)n1)C(F)(F)F" .
Solution: 1.9

----------
experiment: In vivo pharmacokinetic studies in rats; set-up: species or system SD rats; settings: SD, rat, plasma, po, 10 mg/kg, rats, PO 10 mg/kg repeat dose, Day 1, Mean of 3 animals
ATTRIBUTE_MEASURED: AUC(0-inf) (ng·h/mL)
One number for each entry, in ng·h/mL.

Exercise: If you can, please state the reported AUC(0-inf) value of CC(C)(N)c1csc(C(=O)c2c[nH]c3cc(F)ccc23)n1 [ARI-226] .
Solution: 832

----------
assay: In vivo pharmacokinetic studies in rats; design: species or system SD rats; settings: Sprague-Dawley (SD), rat, plasma, po, 10 mg/kg, rats, PO 10 mg/kg repeat dose, Day 5, Mean of 3 animals; read-out: AUClast
ATTRIBUTE_MEASURED: AUC(0-t)

Exercise: If you can, please state the reported AUC(0-t) value of "CC(C)(N)c1csc(C(=O)c2c[nH]c3cc(F)ccc23)n1" .
Solution: 35.7 ng·h/mL
